# System: NCI-H322M (Lung Adenocarcinoma)
# Method: combination Emax (second highest fraction inhibited in the dose matrix, 72 h); higher = more inhibition; extreme values may be limits of the assay
Quantity kind: combination Emax
Output spec: single numeric token, no unit.

| Compound | combination Emax |
| --- | --- |
| NC1(C(=O)N[C@@H](CCO)c2ccc(Cl)cc2)CCN(c2ncnc3[nH]ccc23)CC1 [Capivasertib] + CC(=O)c1c(C)c2cnc(Nc3ccc(N4CCNCC4)cn3)nc2n(C2CCCC2)c1=O [Palbociclib] (first compound max 10 µM, 7x7, partner max 10 µM) | 0.639 |
| Cc1c2c(nn1C)CSCc1cc(n(C)n1)CSc1cc(c3ccccc3c1)OCCCc1c(C(=O)O)n(C)c3c-2c(Cl)ccc13 [AZD5991] + C1CN(CCC1(C(=O)N[C@@H](CCO)C2=CC=C(C=C2)Cl)N)C3=NC=NC4=C3C=CN4 [Capivasertib] (first compound max 1 µM, 7x7, partner max 3 µM) | 0.225 |
| Cc1c2c(nn1C)CSCc1cc(n(C)n1)CSc1cc(c3ccccc3c1)OCCCc1c(C(=O)O)n(C)c3c-2c(Cl)ccc13 [AZD5991] + Cn1cnc2c(F)c(Nc3ccc(Br)cc3Cl)c(C(=O)NOCCO)cc21 [Selumetinib] (first compound max 1 µM, 7x7, partner max 3 µM) | 0.566 |
| CC(=O)c1c(C)c2cnc(Nc3ccc(N4CCNCC4)cn3)nc2n(C2CCCC2)c1=O [Palbociclib] + CN(CC[C@H](CSC1=CC=CC=C1)NC2=C(C=C(C=C2)S(=O)(=O)NC(=O)C3=CC=C(C=C3)N4CCC(CC4)[C@H](C5=CC=CC=C5C6=CC=C(C=C6)Cl)O)S(=O)(=O)C(F)(F)F)CCO [AZD4320] (first compound max 10 µM, 7x7, partner max 1 µM) | 0.517 |
| CN(C)CCCOc1ccc(-c2ccc3ncc4c(c3c2)n(C2CCOCC2)c(=O)n4C)cn1 [AZD0156] + CCN(CCO)CCCOc1ccc2c(Nc3cc(CC(=O)Nc4cccc(F)c4)[nH]n3)ncnc2c1 [AZD2811] (first compound max 1 µM, 7x7, partner max 1 µM) | 0.123 |

Enquiry: Provide one value: measured combination Emax of COc1cccc2c1C(=O)c1c(O)c3c(c(O)c1C2=O)C[C@@](O)(C(=O)CO)C[C@@H]3O[C@H]1C[C@H](N)[C@H](O)[C@H](C)O1 [Doxorubicin] + Cc1cc2ncnn2cc1Nc1ncc2c(n1)n(C1CCOCC1)c(=O)n2C [AZD7648] (first compound max 1 µM, 7x7, partner max 10 µM)
Return: 0.792

Enquiry: Provide one value: measured combination Emax of C=CCn1c(=O)c2cnc(Nc3ccc(N4CCN(C)CC4)cc3)nc2n1-c1cccc(C(C)(C)O)n1 [AZD1775] + C[C@@H]1COCCN1C2=NC(=NC(=C2)C3(CC3)[S@](=N)(=O)C)C4=C5C=CNC5=NC=C4 [AZD6738] (first compound max 1 µM, partner max 10 µM)
Return: 0.871

---

# Tested on: EBC-1 (Squamous Cell Lung Carcinoma);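 also: after 72 h of two-drug dosing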
# Method: Bliss excess, mean over the matrix (fraction); higher = more synergy
# Bliss excess listing for each entry below
Output spec: single numeric token, no unit.

| Compound | Quantity kind | Experimental value |
| --- | --- | --- |
| COc1cccc(OCCCN)c1-c1cc(Nc2cnc(C#N)cn2)n[nH]1 [Prexasertib] + CN(C)CCCOc1ccc(-c2ccc3ncc4c(c3c2)n(C2CCOCC2)c(=O)n4C)cn1 [AZD0156] (first compound max 1 µM, 7x7, partner max 1 µM) | Bliss excess | -0.0297 |
| CC1(C)CCC(CN2CCN(c3ccc(C(=O)NS(=O)(=O)c4ccc(NCC5CCOCC5)c([N+](=O)[O-])c4)c(Oc4cnc5[nH]ccc5c4)c3)CC2)=C(c2ccc(Cl)cc2)C1 [Venetoclax] + CCN(CCO)CCCOc1ccc2c(Nc3cc(CC(=O)Nc4cccc(F)c4)[nH]n3)ncnc2c1 [AZD2811] (first compound max 1 µM, 7x7, partner max 1 µM) | Bliss excess | 0.0178 |
| CN(CCO)CC[C@H](CSc1ccccc1)Nc1ccc(S(=O)(=O)NC(=O)c2ccc(N3CCC([C@@H](O)c4ccccc4-c4ccc(Cl)cc4)CC3)cc2)cc1S(=O)(=O)C(F)(F)F [AZD4320] + CCN(CCO)CCCOc1ccc2c(Nc3cc(CC(=O)Nc4cccc(F)c4)[nH]n3)ncnc2c1 [AZD2811] (first compound max 1 µM, 7x7, partner max 1 µM) | Bliss excess | 0.0178 |
| C=CCn1c(=O)c2cnc(Nc3ccc(N4CCN(C)CC4)cc3)nc2n1-c1cccc(C(C)(C)O)n1 [AZD1775] + C[C@@H]1COCCN1C2=NC(=NC(=C2)C3(CC3)[S@](=N)(=O)C)C4=C5C=CNC5=NC=C4 [AZD6738] (first compound max 1 µM, partner max 10 µM) | Bliss excess | 0.0592 |
| Cc1c2c(nn1C)CSCc1cc(n(C)n1)CSc1cc(c3ccccc3c1)OCCCc1c(C(=O)O)n(C)c3c-2c(Cl)ccc13 [AZD5991] + C[C@@H]1COCCN1C2=NC(=NC(=C2)C3(CC3)[S@](=N)(=O)C)C4=C5C=CNC5=NC=C4 [AZD6738] (first compound max 1 µM, 7x7, partner max 10 µM) | Bliss excess | 0.039 |

Enquiry: Provide one value: measured Bliss excess of CC1(C)CCC(CN2CCN(c3ccc(C(=O)NS(=O)(=O)c4ccc(NCC5CCOCC5)c([N+](=O)[O-])c4)c(Oc4cnc5[nH]ccc5c4)c3)CC2)=C(c2ccc(Cl)cc2)C1 [Venetoclax] + CN(C)CCCOc1ccc(-c2ccc3ncc4c(c3c2)n(C2CCOCC2)c(=O)n4C)cn1 [AZD0156] (first compound max 1 µM, 7x7, partner max 1 µM)
Return: 0.0095

Enquiry: Provide one value: measured Bliss excess of COc1cccc(OCCCN)c1-c1cc(Nc2cnc(C#N)cn2)n[nH]1 [Prexasertib] + Cc1cc2ncnn2cc1Nc1ncc2c(n1)n(C1CCOCC1)c(=O)n2C [AZD7648] (first compound max 1 µM, 7x7, partner max 10 µM)
Return: -0.0054

Origin of measurements: the supplement of paper PMC11061612
